- Tested on: 4% mucin suspension
- PROTOCOL SUMMARY: in vitro mucolytic activity test with a 4% mucin suspension
- Type: biochemical
- CONDITION NOTES: equimolar concentrations (0.00625 M), after hydrolysis with rat serum; 6250 µM
Exercise: state measured reductions in viscosity for each of the compounds provided.
Kindly answer with a numeric value in %, unit omitted.

[Q] Please give measured reductions in viscosity of the following entry: CC(SC(=O)c1cccs1)C(=O)NCC(=O)NC1CCSC1=O (racemic)
[A] 13.1

[Q] Please give measured reductions in viscosity of the following entry: "CC(=O)N[C@@H](CS)C(=O)N[C@H]1CCSC1=O"
[A] 12.8

[Q] Please give measured reductions in viscosity of the following entry: CC(S)C(=O)NCC(=O)O (stereo not drawn) [tiopronin, reference compound]
[A] 11.5

[Q] Please give measured reductions in viscosity of the following entry: CC(SC(=O)c1cccs1)C(=O)NCC(=O)N1CSC[C@H]1C(=O)NC1CCSC1=O (stereo partly drawn)
[A] 13.2

[Q] Please give measured reductions in viscosity of the following entry: CC(=O)N[C@@H](CS)C(=O)O [N-acetyl-cysteine, reference compound]
[A] 10.8

[Q] Please give measured reductions in viscosity of the following entry: CC(=O)N[C@@H](CSC(=O)c1cccs1)C(=O)NC1CCSC1=O (stereo partly drawn)
[A] 12.4
